target: human recombinant Yes [a.a. 2–543 (end)] (Homo sapiens); construct: human recombinant Yes [a.a; 2–543 (end)]; purchased BPS Bioscience 40488; experiment: ADP-Glo kinase assay, inhibition rates of Yes phosphorylation activity (first and second screening); type: biochemical; conditions: first screening; mean of n = 4 wells; 10 μmol L−1 compound
Sequence (P07947 2-543): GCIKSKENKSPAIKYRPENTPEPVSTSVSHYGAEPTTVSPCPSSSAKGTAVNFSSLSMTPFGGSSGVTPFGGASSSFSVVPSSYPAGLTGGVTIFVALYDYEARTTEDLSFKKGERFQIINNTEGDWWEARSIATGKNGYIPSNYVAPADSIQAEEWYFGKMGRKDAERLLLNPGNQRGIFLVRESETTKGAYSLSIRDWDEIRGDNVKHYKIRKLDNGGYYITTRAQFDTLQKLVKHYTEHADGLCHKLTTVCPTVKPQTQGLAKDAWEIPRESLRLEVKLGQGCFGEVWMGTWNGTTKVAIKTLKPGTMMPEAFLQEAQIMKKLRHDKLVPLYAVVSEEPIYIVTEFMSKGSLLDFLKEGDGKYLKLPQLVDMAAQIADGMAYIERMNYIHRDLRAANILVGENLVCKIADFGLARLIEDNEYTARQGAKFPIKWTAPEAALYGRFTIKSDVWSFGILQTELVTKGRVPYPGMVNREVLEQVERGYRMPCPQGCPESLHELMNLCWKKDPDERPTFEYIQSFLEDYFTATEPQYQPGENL
Quantity Name: First screening IR (inhibition rate) (%)
Provide the reading as a plain figure in %.

Some solved entries appear below for comparison.
{"columns": ["Molecule", "First screening IR (inhibition rate) [%]"],
 "data": [
  ["O=c1c2cccc3c2c(nn1-c1ccccc1)-c1ccccc1-3", 18],
  ["Cc1ccccc1Nc1nc(N)nc(CSc2ccccc2Cl)n1", 17],
  ["COc1cccc(-c2cc(-c3ccccc3)c3cc(Cl)ccc3n2)c1.Cl", 1]
]}

Prompt: Consider the molecule O=C(Nc1cccc(Cn2ccnc2)c1)c1cc2c(s1)-c1ccccc1OC2 and give its measured First screening IR (inhibition rate).
Response: 6

Prompt: Consider the molecule CCCN(Cc1cccnc1OC)C1CCN(C(=O)c2ccccc2)CC1 and give its measured First screening IR (inhibition rate).
Response: 6

Prompt: Consider the molecule O=C(NCc1nc(-c2ccccc2)n[nH]1)c1ccc(-c2ccccc2)cc1 and give its measured First screening IR (inhibition rate).
Response: -14
